B1: WDR41 (parent)
chain: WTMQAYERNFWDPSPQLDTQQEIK

# Variants of: B1
# EXPERIMENT DESCRIPTION: protein stability index of a GFP-peptide fusion (GPS, HEK-293T) (PSI 1-6); higher = more stable;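 note: lentivirally expressed fusions sorted by FACS into six bins by GFP to DsRed ratio, PSI derived from sequencing read proportions per bin multiplied by bin number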
# TEST PARAMETERS: c terminus: a fixed tail appended
The entries below come with measured protein stability index values attached.

{"MUTATIONS": "W11H", "protein stability index": 4.04}
{"MUTATIONS": "D12S", "protein stability index": 2.51}
{"MUTATIONS": "D18L", "protein stability index": 2.63}
{"MUTATIONS": "I23R", "protein stability index": 2.91}
{"MUTATIONS": "N9Q", "protein stability index": 1.64}
{"MUTATIONS": "Q4A", "protein stability index": 2.23}
{"MUTATIONS": "T19K", "protein stability index": 2.69}
{"MUTATIONS": "P13K", "protein stability index": 3.44}
{"MUTATIONS": "A5N", "protein stability index": 3.18}
{"MUTATIONS": "P15N", "protein stability index": 2.6}
{"MUTATIONS": "Q16H", "protein stability index": 2.01}
{"MUTATIONS": "I23T", "protein stability index": 2.83}
{"MUTATIONS": "W1M", "protein stability index": 3.77}
{"MUTATIONS": "W11F", "protein stability index": 3.15}
{"MUTATIONS": "N9W", "protein stability index": 1.59}
{"MUTATIONS": "Q20E", "protein stability index": 2.35}
{"MUTATIONS": "T2M", "protein stability index": 2.14}
{"MUTATIONS": "P13R", "protein stability index": 3.01}
{"MUTATIONS": "Q16L", "protein stability index": 2.42}
{"MUTATIONS": "L17V", "protein stability index": 2.75}
{"MUTATIONS": "W1I", "protein stability index": 3.35}
{"MUTATIONS": "Q21T", "protein stability index": 2.5}
